Below, each entry is listed alongside its reported Ki ratio.
# Organism: Cavia porcellus
# Experimental Details: Ki ratio evaluated as the Ki of A2 to that A1 receptor values.
Reported Endpoint: Ki ratio

1. CC(C)Cn1c(=O)n(C)c(=O)c2[nH]c(C(C3CC3)C3CC3)nc21: 34
2. CCCn1c(=O)c2nc(C(C3CC3)C3CC3)[nH]c2n(CCC)c1=O: 140

###

Below, each entry is listed alongside its reported Ki.
# System Name: Adenosine A2 receptor (Rattus norvegicus, UniProt P29276+P30543)
# Assay type: cell membranes, Membrane
Reported Endpoint: Ki

1. CCCn1c(=O)[nH]c(=O)c2[nH]c(C(C3CC3)C3CC3)nc21: > 100 µM
2. CCCn1c(=O)c2nc(C(C3CCCCC3)C3CCCCC3)[nH]c2n(CCC)c1=O: > 100 µM
3. CCCn1c(=O)c2nc(C(C)N)[nH]c2n(CCC)c1=O (stereo not drawn): > 100 µM

###

Below, each entry is listed alongside its reported Ki.
# System Name: Adenosine receptor A1 (Cavia porcellus)
# Sequence (P47745 whole entry): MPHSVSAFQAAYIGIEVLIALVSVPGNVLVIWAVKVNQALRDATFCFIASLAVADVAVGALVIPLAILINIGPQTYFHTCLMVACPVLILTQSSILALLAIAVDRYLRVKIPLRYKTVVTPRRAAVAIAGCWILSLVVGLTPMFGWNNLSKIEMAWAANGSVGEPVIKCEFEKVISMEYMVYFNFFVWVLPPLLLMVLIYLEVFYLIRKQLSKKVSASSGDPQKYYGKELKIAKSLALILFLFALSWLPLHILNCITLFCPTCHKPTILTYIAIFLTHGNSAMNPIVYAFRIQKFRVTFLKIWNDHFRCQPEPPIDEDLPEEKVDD
# Experimental Details: Binding affinity carried out with [3H]cyclohexyladenosine in guinea pig forebrain membranes against adenosine A1 receptor
# Format: cell membranes, Brain membranes
Reported Endpoint: Ki (nM)

1) CCCn1c(=O)c2[nH]c(C(C3CC3C)C3CC3C)nc2n(CCC)c1=O (stereo not drawn): 9.7
2) CCCC(CCC)c1nc2c([nH]1)c(=O)n(CCC)c(=O)n2CCC: 78
3) CCCn1c(=O)c2nc(C(CC)c3ccccc3)[nH]c2n(CCC)c1=O (stereo not drawn): 100

###

Below, each entry is listed alongside its reported Ki ratio.
# Species: Cavia porcellus
# Experimental Details: Ki ratio evaluated as the Ki of A2 to that A1 receptor values.
Reported Endpoint: Ki ratio

1. CCCn1c(=O)c2nc(C(C)N)[nH]c2n(CCC)c1=O (stereo not drawn): > 33
2. CCCn1c(=O)[nH]c(=O)c2[nH]c(C(C3CC3)C3CC3)nc21: > 77
3. CCCn1c(=O)c2nc(C(c3ccccc3)c3ccccc3)[nH]c2n(CCC)c1=O: > 48

The measured values listed here are drawn from ChEMBL document CHEMBL1125889.
